- runDescription: Pharmacokinetic studies in mice
- Assay type: in vivo, mouse
- conditionSummary: female, C57BL/6, mouse, plasma, iv, 15 mg/kg, T1/2, mice, iv, 15 mg/kg; 24 h experiments (31: 8 h experiment)
observable: half-life

Endpoint output: half-life of "N#Cc1cc2cc(CN3CCC(Nc4ncnc5sc(CC(F)(F)F)cc45)CC3)c(O)cc2n1Cc1cn[nH]c1" . Value? ~1.6 h

---

- runDescription: Pharmacokinetic studies in mice
- Assay type: in vivo, mouse
- conditionSummary: female, C57BL/6, mouse, plasma, po, 30 mg/kg, T1/2, mice, po, 30 mg/kg; 24 h experiments (31: 8 h experiment)
observable: half-life (h)
Report only the number, with the unit h understood.

Name the reported half-life value associated with the compound "N#Cc1cc2cc(CN3CCC(Nc4ncnc5sc(CC(F)(F)F)cc45)CC3)c(O)cc2n1Cc1cn[nH]c1" 1.6
